Reference source for all entries: patent US7033991

target desc: T1, Furin (recombinant, truncated) (mouse), P23188
T1 chain: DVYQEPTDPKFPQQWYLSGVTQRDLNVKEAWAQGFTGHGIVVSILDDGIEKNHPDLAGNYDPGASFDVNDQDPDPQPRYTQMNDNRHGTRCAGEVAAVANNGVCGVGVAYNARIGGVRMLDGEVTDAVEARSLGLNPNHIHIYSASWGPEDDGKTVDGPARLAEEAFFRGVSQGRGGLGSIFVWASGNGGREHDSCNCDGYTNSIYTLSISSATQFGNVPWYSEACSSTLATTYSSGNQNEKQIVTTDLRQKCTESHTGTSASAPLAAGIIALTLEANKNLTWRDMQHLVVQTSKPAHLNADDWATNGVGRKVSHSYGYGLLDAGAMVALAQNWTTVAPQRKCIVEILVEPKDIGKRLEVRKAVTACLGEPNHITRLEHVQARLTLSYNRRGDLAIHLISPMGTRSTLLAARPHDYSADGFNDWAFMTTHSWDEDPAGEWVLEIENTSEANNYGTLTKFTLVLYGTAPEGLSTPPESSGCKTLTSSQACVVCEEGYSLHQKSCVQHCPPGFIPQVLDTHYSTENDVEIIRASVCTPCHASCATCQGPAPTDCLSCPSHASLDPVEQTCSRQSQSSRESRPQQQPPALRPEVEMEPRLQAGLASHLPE
recorded conditions: modification not given
assay metric: Ki
# include the unit after the value

Problem: Find the recorded Ki belonging to RRRRRRRRR [Nona-L-arginine] and report it.
Solution: 42 nM
